Test system: SPF male rats, OFA strain
Assay: Anti-inflammatory activity: paw swelling after subcutaneous plantar injection of carraghenine, oral administration
Type: in vivo
Conditions: Rattus norvegicus, po, 32 mg/kg oral, carraghenine, read-out: percentage reduction in the inflammation
readoutKind: inhibition in vivo at 32 mg/kg
# number then unit; no other words

Look over these answered cases.
1) CC(C(=O)O)c1ccc2c(c1)CC(C(C)C)C2 (stereo not drawn) [Example 7] : 61%
2) CC1Cc2ccc(C(C)C(=O)OCCN3CCOCC3)cc2C1 (stereo not drawn) [Example 22] : 7%
3) CC(C(=O)O)c1ccc2c(c1)CC(C1CCCCC1)C2 (stereo not drawn) [Example 14] : 5%

# context switch: different compound, same inhibition in vivo at 32 mg/kg
Return inhibition in vivo at 32 mg/kg (reported value) for this compound: CCC(C(=O)O)c1ccc2c(c1)CC(C(C)C)C2 (stereo not drawn) [Example 20] 24%

---

Tested on: SPF male rats, OFA strain
Experiment: Anti-inflammatory activity: paw swelling after subcutaneous plantar injection of carraghenine, oral administration
Assay type: in vivo
Conditions: Rattus norvegicus, po, 16 mg/kg oral, carraghenine, read-out: percentage reduction in the inflammation
readoutKind: inhibition in vivo at 16 mg/kg

Look over these answered cases.
1) CC(C(=O)OCCN1CCCCC1)c1ccc2c(c1)CC(C(C)C)C2 (stereo not drawn) : 32%
2) CC1Cc2ccc(CCO)cc2C1 (stereo not drawn) [Example 35, β-[2-Methyl-indanyl-(5)]-ethanol] : 43%
3) CC1Cc2ccc(CC(=O)O)cc2C1 (stereo not drawn) [Example 12, [2-Methyl-indanyl-(5)]-acetic acid] : 15%
4) CC1Cc2ccc(C(C)C(=O)OCCN3CCOCC3)cc2C1 (stereo not drawn) : 17%
5) CC(C(=O)O)c1ccc2c(c1)CC(C)(C)C2 (stereo not drawn) : 4%

Return inhibition in vivo at 16 mg/kg (reported value) for this compound: CCC1Cc2ccc(C(C)C(=O)O)cc2C1 (stereo not drawn) 31%

Return inhibition in vivo at 16 mg/kg (reported value) for this compound: CC(C(=O)OCCN1CCOCC1)c1ccc2c(c1)CC(C1CCCCC1)C2 (stereo not drawn) 26%

Return inhibition in vivo at 16 mg/kg (reported value) for this compound: CCC(C(=O)O)c1ccc2c(c1)CC(C(C)C)C2 (stereo not drawn) 13%

Return inhibition in vivo at 16 mg/kg (reported value) for this compound: CC(C(=O)OCCN1CCCC1)c1ccc2c(c1)CC(C(C)C)C2 (stereo not drawn) 21%

Return inhibition in vivo at 16 mg/kg (reported value) for this compound: CC(C)C1Cc2ccc(CCO)cc2C1 (stereo not drawn) [Example 37, β-[2-Isopropyl-indanyl-(5)]-ethanol] 0%

---

Test system: male mice (SPF1, OF1 strain)
Assay: Analgesic activity: inhibition of pain reactions (abdominal twistings) after intraperitoneal phenylbenzoquinone, oral administration
Assay type: in vivo
Conditions: Mus musculus, po, 32 mg/kg oral, read-out: percentage inhibition of pain reactions
Would you please tag the item rule met when its inhibition in vivo at 32 mg/kg is 20% or above, and rule not met when it is below?

For orientation, consider the following solved cases.
1) CC(C)C1Cc2ccc(CC(=O)OCCN3CCOCC3)cc2C1 (stereo not drawn) [Example 8] : rule not met
2) CC1CC(C)c2cc(C(C)C(=O)O)ccc21 (stereo not drawn) [Example 6] : rule met
3) CC(C(=O)OCCN1CCOCC1)c1ccc2c(c1)CC(C1CCCCC1)C2 (stereo not drawn) [Example 25] : rule not met

Dear colleague, could you confirm whether CC(C)C1Cc2ccc(CCO)cc2C1 (stereo not drawn) [Example 37, β-[2-Isopropyl-indanyl-(5)]-ethanol] has inhibition in vivo at 32 mg/kg at or above 20%? rule met

Dear colleague, could you confirm whether CC1(C)Cc2ccc(CC(=O)OCCN3CCOCC3)cc2C1 [Example 23] has inhibition in vivo at 32 mg/kg at or above 20%? rule met

Dear colleague, could you confirm whether CC(C(=O)OCCN1CCCCC1)c1ccc2c(c1)CC(C(C)C)C2 (stereo not drawn) [Example 30] has inhibition in vivo at 32 mg/kg at or above 20%? rule met

Dear colleague, could you confirm whether O=C(O)Cc1ccc2c(c1)CC(C1CCCCC1)C2 (stereo not drawn) [Example 11, [2-Cyclohexyl-indanyl-(5)]-acetic acid] has inhibition in vivo at 32 mg/kg at or above 20%? rule not met

Dear colleague, could you confirm whether CC1Cc2ccc(C(C)C(=O)OCCN3CCOCC3)cc2C1 (stereo not drawn) [Example 22] has inhibition in vivo at 32 mg/kg at or above 20%? rule not met

Dear colleague, could you confirm whether CCC1Cc2ccc(C(C)C(=O)OCCN3CCOCC3)cc2C1 (stereo not drawn) [Example 26] has inhibition in vivo at 32 mg/kg at or above 20%? rule met
